Test system: OE33
experimental.details: Cytotoxicity against human OE33 cells after 72 hrs by MTT assay
Format: functional, cell-based
assay.setup: OE33, 72 h
Below, each entry is listed alongside its reported IC50.
Kindly answer with a numeric value in nM, unit omitted.

>>> value_measured("CC[C@]1(O)C[C@H]2CN(CCc3c([nH]c4ccccc34)[C@@](C(=O)OC)(c3cc4c(cc3OC)N(C=O)[C@H]3[C@@](O)(C(=O)OC)[C@H](OC(C)=O)[C@]5(CC)C=CCN6CC[C@]43[C@@H]65)C2)C1 [VINCRISTINE]")
30

Would you kindly look at the next entry?
Lookup: # query: IC50 of entry CCCCn1ccc2c3c(=O)cc(-c4ccccc4)[nH]c3ccc21
Found: 60

----------
Activity overview
Test system: A549
experimental.details: Cell cycle arrest in human A549 cells assessed as accumulation at sub Go phase at 1 uM after 24 hrs
Type: functional

>>> value_measured("O=c1cc(-c2ccccc2)[nH]c2ccc3c(ccn3Cc3ccccc3)c12")
"0.5%"
>>> value_measured("CC[C@]1(O)C[C@H]2CN(CCc3c([nH]c4ccccc34)[C@@](C(=O)OC)(c3cc4c(cc3OC)N(C=O)[C@H]3[C@@](O)(C(=O)OC)[C@H](OC(C)=O)[C@]5(CC)C=CCN6CC[C@]43[C@@H]65)C2)C1")
"0.5%"
>>> value_measured("CCCCn1ccc2c3c(=O)cc(-c4ccccc4)[nH]c3ccc21")
"0.4%"
>>> value_measured("CCCn1ccc2c3c(=O)cc(-c4ccccc4)[nH]c3ccc21")
"0.3%"
>>> value_measured("O=c1cc(-c2ccccc2)[nH]c2ccc3c(ccn3CC3CC3)c12")
"0.3%"
>>> value_measured("Cn1ccc2c3c(=O)cc(-c4ccccc4)[nH]c3ccc21")
"0.3%"

Lookup: Request body: readout Activity, system A549, query CCn1ccc2c3c(=O)cc(-c4ccccc4)[nH]c3ccc21 . Return the value.
Found: 0.4%

Lookup: # value lookup — system A549, readout Activity, item CCCCCn1ccc2c3c(=O)cc(-c4ccccc4)[nH]c3ccc21
Found: 0.4%

----------
This listing pairs molecules with measured IC50.
Tested on: OE33
experimental.details: Cytotoxicity against human OE33 cells after 72 hrs by MTT assay
Format: functional, cell-based
assay.setup: OE33, 72 h
Answer in µM, number only, no unit symbol.

Check out these entries, answers already filled in.
>>> value_measured("O=c1cc(-c2ccccc2)[nH]c2ccc3c(ccn3Cc3ccccc3)c12")
0.1
>>> value_measured("O=c1cc(-c2ccccc2)[nH]c2ccc3c(ccn3CC3CC3)c12")
0.02
>>> value_measured("CCCCCn1ccc2c3c(=O)cc(-c4ccccc4)[nH]c3ccc21")
0.02
>>> value_measured("O=c1cc(-c2ccccc2)[nH]c2ccc3[nH]ccc3c12")
2
>>> value_measured("CC(=O)O[C@H]1C(=O)[C@@]2(C)[C@H]([C@H](OC(=O)c3ccccc3)[C@]3(O)C[C@H](OC(=O)[C@H](O)[C@@H](NC(=O)c4ccccc4)c4ccccc4)C(C)=C1C3(C)C)[C@]1(OC(C)=O)CO[C@@H]1C[C@@H]2O [PACLITAXEL]")
0.2
>>> value_measured("CCn1ccc2c3c(=O)cc(-c4ccccc4)[nH]c3ccc21")
0.2

Lookup: Form field: reported IC50 of Cn1ccc2c3c(=O)cc(-c4ccccc4)[nH]c3ccc21
Found: 0.8

Lookup: Recorded IC50 for CCN(CC)CCn1ccc2c3c(O)cc(-c4ccccc4)nc3ccc21 , please?
Found: 16

Lookup: GET /values?readout=IC50&item= CCCn1ccc2c3c(=O)cc(-c4ccccc4)[nH]c3ccc21
Found: 0.1
